B1: HDV Ribozyme (parent)
chain: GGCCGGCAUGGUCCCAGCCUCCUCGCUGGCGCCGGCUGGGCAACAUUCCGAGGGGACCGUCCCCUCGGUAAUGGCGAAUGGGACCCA

- Variants of: B1
- ASSAY TEXT: self-cleavage, relative activity (ratio to wild type); higher = more cleavage; co-transcriptional
Assign self-cleavage to each entry below.
Could you keep your reply to the number by itself?

Qu. Report measured self-cleavage; entry is `GGCCGGCAUGGUCCCAGCCUCCUCGCUGGCGCCGGCUGGGCAACAUUCCGAGGCGACCGUCCCCUCGGUAAUAGCGAAUGGGACCCA`
Ans. 0.565

Qu. Report measured self-cleavage; entry is `GGCCGGCAUGGUCUCAGCCUCCUCGCUGGCGCCGGCUGGGCAACAUGCCGAGGGGACCGUCCCCUCGGUAAUGGCGAAUGGGACCCA`
Ans. 0.939

Qu. Report measured self-cleavage; entry is `GGCCGGCAUGGUCCCAGCGUCCUCGCUGGCCCCGGCUGGGCAACAUUCCGAGGGGACCGUCCCCUCGGUAAUGGCGAAUGGGACCCA`
Ans. 0.104

Qu. Report measured self-cleavage; entry is `GGCCGGCACGGUCCCAGCCUCCUCGCUGGCGCCGGCUGGGCAACAUUCCGAGGGGACCGUUCCCUCGGUAAUGGCGAAUGGGACCCA`
Ans. 0.81

Qu. Report measured self-cleavage; entry is `GGCCGGCAUGGUCCCAGCCUCCUCGCUGGCGCCGGCUGGGCAACAUUCCAAGGGGACCGUCCCCUCGGUAAUGGCGAAUGGGGCCCA`
Ans. 0.99

Qu. Report measured self-cleavage; entry is `GGCCGGCAUGGUCCCAGCCUCCUCGCUGGCGCCGGCUGGGCGACAUUCCGAGGGGACCGUCCCCUCGGUAAUGCCGAAUGGGACCCA`
Ans. 0.095

Qu. Report measured self-cleavage; entry is `GGCUGGCAUGGUCCCAGCCUCCUAGCUGGCGCCGGCUGGGCAACAUUCCGAGGGGACCGUCCCCUCGGUAAUGGCGAAUGGGACCCA`
Ans. 0.0583

Qu. Report measured self-cleavage; entry is `GGCGAGCAUGGUCCCAGCCUCCUCGCUGGCGCCGGCUGGGCAACAUUCCGAGGGGACCGUCCCCUCGGUAAUGGCGAAUGGGACCCA`
Ans. 0.0519

Qu. Report measured self-cleavage; entry is `GGCCGGCAUGGUCCUAGCCUCCUCCCUGGCGCCGGCUGGGCAACAUUCCGAGGGGACCGUCCCCUCGGUAAUGGCGAAUGGGACCCA`
Ans. 0.0723

Qu. Report measured self-cleavage; entry is `GGCCGGCAUGGUCGCAGCCACCUCGCUGGCGCCGGCUGGGCAACAUUCCGAGGGGACCGUCCCCUCGGUAAUGGCGAAUGGGACCCA`
Ans. 0

Qu. Report measured self-cleavage; entry is `GGCCGGCAUGCUCCCAGCCUCCUCGCUGGCGCCGGCUGGGCAACAUUCCGAGGGUACCGUCCCCUCGGUAAUGGCGAAUGGGACCCA`
Ans. 0.305

Qu. Report measured self-cleavage; entry is `GGCCGGCAUGUUCCCAGCCUCCUCGCUGGCGCCGGCUGGGCAACAUUCGGAGGGGACCGUCCCCUCGGUAAUGGCGAAUGGGACCCA`
Ans. 0.166

Qu. Report measured self-cleavage; entry is `GGCCGGCAUGGUCCCAGCCUCCUCGCUGGCGCCGGCUGGGCAACAUUCCGAGGGGACCGUCCCCUCGAUAAUGGUGAAUGGGACCCA`
Ans. 0.0615

Qu. Report measured self-cleavage; entry is `GGCCGGCAUGGUCCCAGCAUCCUCGCUGGGGCCGGCUGGGCAACAUUCCGAGGGGACCGUCCCCUCGGUAAUGGCGAAUGGGACCCA`
Ans. 0.0437

Qu. Report measured self-cleavage; entry is `GGCCGGCAUGGUCCCAGCCUCCUCGCUGGCGCCGGCUGGGCAACAUUCCGAGUGGACCGUCCCCUCGGUAAUGGCGAAUGGUACCCA`
Ans. 0.427

Qu. Report measured self-cleavage; entry is `GGCCGGCAUGGUCCCAGCCUCCUCGCUGGCGCCGGCUGGACAACAUUCCCAGGGGACCGUCCCCUCGGUAAUGGCGAAUGGGACCCA`
Ans. 0.92

Qu. Report measured self-cleavage; entry is `GGCCGGCAUGGUCCCUGCCUGCUCGCUGGCGCCGGCUGGGCAACAUUCCGAGGGGACCGUCCCCUCGGUAAUGGCGAAUGGGACCCA`
Ans. 0.0665

Qu. Report measured self-cleavage; entry is `GGCCGGCAAGGUCCCAGCCUCCUCGCUGGCGCGGGCUGGGCAACAUUCCGAGGGGACCGUCCCCUCGGUAAUGGCGAAUGGGACCCA`
Ans. 0.0692

Qu. Report measured self-cleavage; entry is `GGCCGGCAUGGUCCCAGCCUCCUCGCUGGCGCCGGCUGGGCAACAUUCCGAGGGGACCGACCCCUCGGUAAUAGCGAAUGGGACCCA`
Ans. 0.751

Qu. Report measured self-cleavage; entry is `GGCCCGCAUGGUCCCAGCCUCCUCGCUGGCGCCGGCUGGGCAAUAUUCCGAGGGGACCGUCCCCUCGGUAAUGGCGAAUGGGACCCA`
Ans. 0.0504

Qu. Report measured self-cleavage; entry is `GGCCGGCAUGGUCCCAGCCUCUUCGCUGGCGCCGGCUGGGCAACAUUCCGAGGGGACCGUCCCCUCGGUAAUGGAGAAUGGGACCCA`
Ans. 0.0282

Qu. Report measured self-cleavage; entry is `GGCCGGCAUGGUCCCAGCCUCCUCGCUGGCGCCGGCUGGGCAACAUUCGGAGGGGACCGUCCCCACGGUAAUGGCGAAUGGGACCCA`
Ans. 0.573
